Provide the reported TGI of each item.
- Tested on: HT29 colon
- protocol: NCI tumour cell line growth inhibition, 48 h
Answers are plain numbers, in µM.

Exam item: For the compound shown here, CCOC(=O)C1=C(C)NC(C)=C(C(=O)OCCNC(=O)c2ccc(N=[N+]=[N-])cc2)C1c1ccccc1C(F)(F)F (stereo not drawn) , give the reported TGI.
Marked response: 21.5

// below: TGI requested for another compound
Exam item: // query TGI value for entry COc1ccc(C2CC(c3ccccc3)=NN2C(=O)c2cc(OC)c(OC)c(OC)c2)cc1O (stereo not drawn)
Marked response: 8.31

###

- Test system: EKVX NSCLC
- protocol: NCI tumour cell line growth inhibition, 48 h
Can you tell me TGI for the items I'm about to list?

Known TGI results, listed for orientation:
Exam item: What value of TGI has been reported for the following molecule? CC(C)NC(=O)OCc1nnn2c1CCC2
Marked response: > 100 µM

Exam item: What measured TGI goes with O=C(Nc1ccn(C2CC(I)C(COC(c3ccccc3)(c3ccccc3)c3ccccc3)O2)c(=O)n1)c1ccccc1 (stereo not drawn) ?
Marked response: 21.5 µM

Exam item: Name the recorded TGI for N.N.N.N.N.N#Cc1nn[n-]n1.[Cl-].[Co+3] .
Marked response: > 100 µM

Exam item: State the recorded TGI for this entry: O=C(CC(=O)N1N=C(n2ccc3ccccc32)CC1c1ccccc1)Nc1ccc(Cl)cc1 (stereo not drawn)
Marked response: > 100 µM

Exam item: Name the reported TGI value associated with the molecule O=C(O)CCNc1ncc2c(n1)-c1ccccc1OC2
Marked response: > 100 µM

Exam item: Data request, read-out TGI, for Clc1cc2nc(C3CCCCO3)[nH]c2cc1Cl (stereo not drawn)
Marked response: > 100 µM

Exam item: What value of measured TGI is listed for COc1ccc(/C(=C/c2ccc3ccccc3c2)c2nn[nH]n2)cc1OC ?
Marked response: > 100 µM

Exam item: Which value of TGI has been reported for Cc1ccccc1C=NC12CC3CC(CC(C3)C1)C2 in the records?
Marked response: > 100 µM

Provide the reported TGI of each entry below, same order.
1. O=C1C=CC(=O)c2c(O)c(NCCO)c(Cl)c(O)c21
2. O=C(CC(Cc1ccccc1)c1ccc(Oc2ccccc2)cc1)Nc1cccc(Cl)c1 (stereo not drawn)
3. CCNC(=O)Oc1ccc(/C(=C(\C)c2ccc(Cl)cc2)c2ccc(OCCN(CC)CC)cc2)cc1
4. Cc1cccc2c(N)c3cccc(C(=O)NCC[N+](C)(C)Cc4ccc(S(C)(=O)=O)cc4)c3nc12
5. CCCC(=O)N(C)N=Nc1ccc(C(=O)OCC)cc1
6. CCC(=O)N(c1ccccc1)C(C)CN1CCC(O)(c2cccc(C(F)(F)F)c2)CC1 (stereo not drawn)
7. COC1=CC(c2ccc[nH]2)=N/C1=C\c1[nH]c(C)c(C(=O)Oc2ccccc2)c1C

Marked response:
> 10 µM
> 100 µM
23.6 µM
> 100 µM
> 100 µM
> 100 µM
2.97 µM

###

Let's go through some recorded GI50 values for U251 CNS together.

Solved cases below.
Exam item: Fill in: GI50 of CS(=O)(=O)O[C@H]1C(=O)N(c2cc3c4ccccc4ccc3c3ccccc23)[C@@H]1c1ccccn1 is ___
Marked response: 685 nM

Exam item: Item under review: Clc1ccc(C2CC(c3cccc(Nc4ccncc4)c3)=NN2c2ccccc2)cc1 (stereo not drawn) . Reported GI50?
Marked response: 1890 nM

Exam item: Suppose we examine the compound COc1ccc2nc3cc(Cl)ccc3c(NCCNCC(O)CO)c2c1 (stereo not drawn) ; what GI50 value has been reported?
Marked response: 1550 nM

Exam item: For CON=C1C[C@]2(C[C@@H]3C[C@@H](C/C=C(\C)C[C@@H](C)/C=C/C=C4\CO[C@@H]5[C@H](O)C(C)=C[C@@H](C(=O)O3)[C@]45O)O2)O[C@H](/C(C)=C/C(C)C)[C@H]1C , what is its reported GI50?
Marked response: 11300 nM

Take each entry in turn and give its GI50.
1. CC(=O)OC1CC2C(C)(C)CCC[C@]2(C)C2=C1C(O)=C(C(C)C)C(=O)C2=O (stereo partly drawn)
2. CC(=O)NC(CS)C(=O)O (stereo not drawn)
3. COc1cc(N2CCN(C(C)C)CC2)ccc1Nc1nc(Nc2ccc(F)cc2C(=O)NCC(O)CO)c2cc[nH]c2n1 (stereo not drawn)
4. CCCCCCCCCCCCNC(=O)N[C@H](C(=O)N[C@H]1/C=C/CCNC(=O)/C=C/[C@H](C)NC1=O)C(C)C

Marked response:
1. 666 nM
2. > 100000 nM
3. 5220 nM
4. 41.2 nM

These data points were gathered from PubChem BioAssay (NCI).
